# Test system: JVM-3 (B-Cell Non-Hodgkin's Lymphoma)
# protocol_notes: combination Emax (second highest fraction inhibited in the dose matrix, 72 h); higher = more inhibition; extreme values may be limits of the assay
Measured combination Emax of individual entries
I'd appreciate a reply containing only the number, no unit.

compound="CN(CCO)CC[C@H](CSc1ccccc1)Nc1ccc(S(=O)(=O)NC(=O)c2ccc(N3CCC([C@@H](O)c4ccccc4-c4ccc(Cl)cc4)CC3)cc2)cc1S(=O)(=O)C(F)(F)F [AZD4320] + C=CCn1c(=O)c2cnc(Nc3ccc(N4CCN(C)CC4)cc3)nc2n1-c1cccc(C(C)(C)O)n1 [AZD1775] (first compound max 1 µM, partner max 1 µM)" observed_property="combination Emax" numeric_result=1
compound="CN(CCO)CC[C@H](CSc1ccccc1)Nc1ccc(S(=O)(=O)NC(=O)c2ccc(N3CCC([C@@H](O)c4ccccc4-c4ccc(Cl)cc4)CC3)cc2)cc1S(=O)(=O)C(F)(F)F [AZD4320] + Cc1cc2ncnn2cc1Nc1ncc2c(n1)n(C1CCOCC1)c(=O)n2C [AZD7648] (first compound max 1 µM, 7x7, partner max 10 µM)" observed_property="combination Emax" numeric_result=0.916
compound="CC1(C)CCC(CN2CCN(c3ccc(C(=O)NS(=O)(=O)c4ccc(NCC5CCOCC5)c([N+](=O)[O-])c4)c(Oc4cnc5[nH]ccc5c4)c3)CC2)=C(c2ccc(Cl)cc2)C1 [Venetoclax] + C[C@@H]1COCCN1C2=NC(=NC(=C2)C3(CC3)[S@](=N)(=O)C)C4=C5C=CNC5=NC=C4 [AZD6738] (first compound max 1 µM, 7x7, partner max 10 µM)" observed_property="combination Emax" numeric_result=0.9
compound="CCN(CCO)CCCOc1ccc2c(Nc3cc(CC(=O)Nc4cccc(F)c4)[nH]n3)ncnc2c1 [AZD2811] + C[C@@H]1COCCN1C2=NC(=NC(=C2)C3(CC3)[S@](=N)(=O)C)C4=C5C=CNC5=NC=C4 [AZD6738] (first compound max 1 µM, 7x7, partner max 10 µM)" observed_property="combination Emax" numeric_result=0.723

input: Entry under review: COc1cccc(OCCCN)c1-c1cc(Nc2cnc(C#N)cn2)n[nH]1 [Prexasertib] + O=C(c1cc(Cc2n[nH]c(=O)c3ccccc23)ccc1F)N1CCN(C(=O)C2CC2)CC1 [Olaparib] (first compound max 1 µM, 7x7, partner max 10 µM) . Reported combination Emax?
output: 0.986

input: Entry under review: Cc1c2c(nn1C)CSCc1cc(n(C)n1)CSc1cc(c3ccccc3c1)OCCCc1c(C(=O)O)n(C)c3c-2c(Cl)ccc13 [AZD5991] + C=CCn1c(=O)c2cnc(Nc3ccc(N4CCN(C)CC4)cc3)nc2n1-c1cccc(C(C)(C)O)n1 [AZD1775] (first compound max 1 µM, partner max 1 µM) . Reported combination Emax?
output: 0.92
